system: Phosphatidylinositol 4-kinase beta (Homo sapiens);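 further: values are mean percent inhibition of PI4K-beta activity, averaged over replicate measurements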
experimental conditions: at 1 µM

[
  {
    "compound": "COc1cc2c(cc1Nc1nc(Nc3ccsc3C(N)=O)c3cc[nH]c3n1)N(C(=O)CN(C)C)CCC2(C)C",
    "inhibition (%)": -1.38
  },
  {
    "compound": "COc1ccc(-c2cc3c(N)ncnc3o2)cc1",
    "inhibition (%)": -0.47
  },
  {
    "compound": "Cc1ccc2c(-c3ccnc(Nc4ccccc4)n3)c(-c3ccc(F)cc3)nn2n1",
    "inhibition (%)": 1.56
  },
  {
    "compound": "CNC(=O)c1cncc(/C=C/c2ccccc2Cl)c1",
    "inhibition (%)": 1.28
  },
  {
    "compound": "COc1cccc(-c2c[nH]c3c(N/N=C/c4ccncc4)ncnc23)c1",
    "inhibition (%)": 0.08
  },
  {
    "compound": "COc1cc2ncn(-c3cc(OCc4ccccc4C(F)(F)F)c(C(=O)N(C)C)s3)c2cc1OC",
    "inhibition (%)": 0.96
  },
  {
    "compound": "Fc1ccc(-c2cc(-c3c[nH]nc3-c3ccccn3)ccn2)cc1",
    "inhibition (%)": -0.81
  },
  {
    "compound": "Clc1ccc(-c2nn3ncccc3c2-c2ccnc(Nc3ccccc3)n2)cc1",
    "inhibition (%)": 0.11
  },
  {
    "compound": "CCn1c(-c2nonc2N)nc2cnc(Oc3cccc(NC(=O)c4ccc(N(C)C)cc4)c3)cc21",
    "inhibition (%)": 2.47
  }
]

----------
system: Proto-oncogene tyrosine-protein kinase Src (Homo sapiens);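 further: each value is an averaged percent inhibition of SRC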
experimental conditions: at 1 µM
readout type: inhibition (%)

[
  {
    "compound": "CCn1c(-c2nonc2N)nc2c(C#CC(C)(C)O)ncc(OC3CCNCC3)c21",
    "result": 11.4
  },
  {
    "compound": "COc1ccc(-c2oc3ncnc(N)c3c2-c2ccc(NC(=O)Nc3cc(C(F)(F)F)ccc3F)cc2)cc1",
    "result": 91.1
  },
  {
    "compound": "CN1CCC(n2cnc(-c3ccc(F)cc3)c2-c2ccnc(N)n2)CC1",
    "result": 10.6
  },
  {
    "compound": "O=S(=O)(CCNCc1ccc(-c2ccc3ncnc(Nc4ccc(OCc5cccc(F)c5)c(Cl)c4)c3c2)o1)c1ccccc1",
    "result": 8.52
  },
  {
    "compound": "CN1CCC(n2cnc(-c3ccc(F)cc3)c2-c2ccnc(Nc3ccccc3)n2)CC1",
    "result": 11.8
  },
  {
    "compound": "COc1ccc(CNC(=O)c2ccc(-c3cc(-c4nnc(C)o4)ccc3C)cc2)cc1",
    "result": 2.9
  },
  {
    "compound": "CCN1CCC(CC(=O)Nc2n[nH]c3nnc(-c4cccc(F)c4F)cc23)CC1",
    "result": 0.53
  },
  {
    "compound": "Fc1ccc(-c2cc(-c3c[nH]nc3-c3ccccn3)ccn2)cc1",
    "result": 9
  },
  {
    "compound": "c1cc(-c2cnn3nc(N4CCOCC4)ccc23)nc(NC2CC2)n1",
    "result": 8.4
  },
  {
    "compound": "Clc1ccc(-c2nn3ncccc3c2-c2ccnc(Nc3ccccc3)n2)cc1",
    "result": 39.3
  },
  {
    "compound": "COC(=O)c1sc(-n2cnc3cc(OC)c(OC)cc32)cc1OCc1ccccc1C(F)(F)F",
    "result": 24.7
  },
  {
    "compound": "Nc1ncc(-c2cccc(S(N)(=O)=O)c2)c2scc(-c3ccc(F)c(Cl)c3)c12",
    "result": 57.1
  },
  {
    "compound": "COc1ccc(-c2cc(-c3c[nH]nc3-c3ccccn3)ccn2)cc1",
    "result": 11.1
  },
  {
    "compound": "CC(C)(CO)CNC(=O)c1ccc2c(c1)/C(=N/Nc1ccc(S(N)(=O)=O)cc1)C(=O)N2",
    "result": 34.2
  },
  {
    "compound": "Cc1cccc2c1NC(=O)/C2=N\\Nc1ccc(S(N)(=O)=O)cc1",
    "result": 6.45
  },
  {
    "compound": "COc1cc(/C=N/Nc2ncnc3[nH]ncc23)ccc1O",
    "result": 83.2
  },
  {
    "compound": "CNC(=O)c1cccc(C#Cc2cncnc2Nc2ccc(OCc3cccc(F)c3)c(Cl)c2)c1",
    "result": 5.22
  },
  {
    "compound": "COc1ccc2[nH]c3c4[nH]c5ccc(OC)cc5c4c4c(c3c2c1)C(=O)NC4=O",
    "result": 20.4
  },
  {
    "compound": "O=C(O[C@H]1CN[C@H](C#Cc2cc3ncnc(Nc4ccc(Cc5ccccc5)cc4)c3s2)C1)N1CCOCC1",
    "result": 7.75
  },
  {
    "compound": "CCN(CC)S(=O)(=O)c1ccc(OC)c(Nc2ncc(-c3ccccc3)o2)c1",
    "result": 56.4
  }
]

----------
system: Protein-tyrosine kinase 6 (Homo sapiens) (UniProt Q13882)
Sequence (Q13882 whole entry, looked up): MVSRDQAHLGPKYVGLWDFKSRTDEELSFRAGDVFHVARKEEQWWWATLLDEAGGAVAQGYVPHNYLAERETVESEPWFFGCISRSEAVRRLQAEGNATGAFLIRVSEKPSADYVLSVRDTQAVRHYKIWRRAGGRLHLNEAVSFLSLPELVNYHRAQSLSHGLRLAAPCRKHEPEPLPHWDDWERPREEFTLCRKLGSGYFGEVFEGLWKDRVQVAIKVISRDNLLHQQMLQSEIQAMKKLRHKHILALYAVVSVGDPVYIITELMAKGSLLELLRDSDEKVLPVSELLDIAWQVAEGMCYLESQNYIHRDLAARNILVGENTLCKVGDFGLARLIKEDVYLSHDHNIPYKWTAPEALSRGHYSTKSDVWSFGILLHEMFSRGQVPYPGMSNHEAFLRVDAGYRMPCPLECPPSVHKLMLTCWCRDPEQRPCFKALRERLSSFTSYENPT
experimental conditions: at 0.1 µM
Description: GSK_PKIS: BRK mean inhibition at 0.1 uM [Nanosyn]
readout type: inhibition (%)

[
  {
    "compound": "COc1ccc(-c2cc3c(N)ncnc3o2)cc1",
    "system": "Protein-tyrosine kinase 6 (Homo sapiens) (UniProt Q13882)",
    "result": 0.01
  },
  {
    "compound": "Cc1cccc(Nc2ncc(-c3ccccc3)o2)c1",
    "system": "Protein-tyrosine kinase 6 (Homo sapiens) (UniProt Q13882)",
    "result": 2.06
  },
  {
    "compound": "Nc1nc(-c2cccc(Cl)c2)c(-c2ccc3ncccc3n2)s1",
    "system": "Protein-tyrosine kinase 6 (Homo sapiens) (UniProt Q13882)",
    "result": 5.86
  },
  {
    "compound": "Fc1cccc(COc2ccc(Nc3ncnc4sc(-c5ccco5)cc34)cc2Cl)c1",
    "system": "Protein-tyrosine kinase 6 (Homo sapiens) (UniProt Q13882)",
    "result": 3.39
  },
  {
    "compound": "CN(C)CCOc1ccc(-c2nc(-c3ccncc3)c(-c3ccc4c(c3)CC/C4=N\\O)[nH]2)cc1",
    "system": "Protein-tyrosine kinase 6 (Homo sapiens) (UniProt Q13882)",
    "result": 4.89
  },
  {
    "compound": "COc1ccc(-c2cc(-c3c[nH]nc3-c3ccccn3)ccn2)cc1",
    "system": "Protein-tyrosine kinase 6 (Homo sapiens) (UniProt Q13882)",
    "result": 6.49
  },
  {
    "compound": "c1ccc(COc2ccc(Nc3ncnc4ccc(-c5ccco5)cc34)cc2)cc1",
    "system": "Protein-tyrosine kinase 6 (Homo sapiens) (UniProt Q13882)",
    "result": 1.6
  },
  {
    "compound": "c1cc(-c2cnn3nc(N4CCOCC4)ccc23)nc(NC2CC2)n1",
    "system": "Protein-tyrosine kinase 6 (Homo sapiens) (UniProt Q13882)",
    "result": 6.35
  },
  {
    "compound": "COc1cc2c(cc1Nc1nc(Nc3ccsc3C(N)=O)c3cc[nH]c3n1)N(C(=O)CN(C)C)CCC2(C)C",
    "system": "Protein-tyrosine kinase 6 (Homo sapiens) (UniProt Q13882)",
    "result": 5.95
  },
  {
    "compound": "COC(=O)Nc1nc2ccc(Oc3ccc(NC(=O)Nc4cccc(Cl)c4)cc3)cc2[nH]1",
    "system": "Protein-tyrosine kinase 6 (Homo sapiens) (UniProt Q13882)",
    "result": 0.55
  },
  {
    "compound": "FC(F)(F)c1cccc(-c2nn3ncccc3c2-c2ccnc(Nc3ccc4c(c3)OCCO4)n2)c1",
    "system": "Protein-tyrosine kinase 6 (Homo sapiens) (UniProt Q13882)",
    "result": 4.61
  },
  {
    "compound": "NS(=O)(=O)c1ccc(Nc2ncc(-c3ccccc3)o2)cc1",
    "system": "Protein-tyrosine kinase 6 (Homo sapiens) (UniProt Q13882)",
    "result": 4.11
  },
  {
    "compound": "COc1cc2ncn(-c3cc(OCc4ccccc4C(F)(F)F)c(C(=O)N(C)C)s3)c2cc1OC",
    "system": "Protein-tyrosine kinase 6 (Homo sapiens) (UniProt Q13882)",
    "result": -0.28
  },
  {
    "compound": "N#Cc1c(NC(=O)CN2CCOCC2)sc2c1CCCC2",
    "system": "Protein-tyrosine kinase 6 (Homo sapiens) (UniProt Q13882)",
    "result": 0.26
  },
  {
    "compound": "CCn1cc(-c2ccnc3[nH]ccc23)c(-c2cccc(NC(=O)Nc3ccc(OCc4ccccc4)cc3)c2)n1",
    "system": "Protein-tyrosine kinase 6 (Homo sapiens) (UniProt Q13882)",
    "result": 3.04
  },
  {
    "compound": "Nc1nc(-c2ccc(F)cc2)c(-c2ccc3ncccc3n2)s1",
    "system": "Protein-tyrosine kinase 6 (Homo sapiens) (UniProt Q13882)",
    "result": 7.59
  },
  {
    "compound": "O=C(O[C@H]1CN[C@H](C#Cc2cc3ncnc(Nc4ccc(Cc5ccccc5)cc4)c3s2)C1)N1CCOCC1",
    "system": "Protein-tyrosine kinase 6 (Homo sapiens) (UniProt Q13882)",
    "result": -0.08
  },
  {
    "compound": "CNC(=O)c1cc(-c2ccc(F)cc2)cc(-c2ccc(S(=O)(=O)N3CCCC3)cc2)c1N",
    "system": "Protein-tyrosine kinase 6 (Homo sapiens) (UniProt Q13882)",
    "result": 1.87
  },
  {
    "compound": "O=C(Nc1n[nH]c2cc(-c3ccc(F)cc3)ccc12)C1CC1",
    "system": "Protein-tyrosine kinase 6 (Homo sapiens) (UniProt Q13882)",
    "result": 3.22
  },
  {
    "compound": "Fc1ccc(-c2nn3ccccc3c2-c2ccncc2)cc1",
    "system": "Protein-tyrosine kinase 6 (Homo sapiens) (UniProt Q13882)",
    "result": -1.18
  },
  {
    "compound": "CCn1c(-c2nonc2N)nc2cnc(Oc3cccc(NC(=O)c4ccc(N(C)C)cc4)c3)cc21",
    "system": "Protein-tyrosine kinase 6 (Homo sapiens) (UniProt Q13882)",
    "result": -0.08
  }
]
